# assay.target: T1, rat IL-25 expressed with a C-terminal myc-myc-hexahistidine tag (rat)
# T1 construct: also called Rat IL-25-MMH
# T1 chain: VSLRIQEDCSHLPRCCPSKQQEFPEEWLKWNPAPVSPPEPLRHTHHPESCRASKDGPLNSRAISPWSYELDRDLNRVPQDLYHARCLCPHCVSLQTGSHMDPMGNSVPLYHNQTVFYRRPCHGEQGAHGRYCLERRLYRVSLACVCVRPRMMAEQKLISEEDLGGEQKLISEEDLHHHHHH
# measurement.description: SPR Biacore, antibody captured, 25C;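 further: purified anti-IL-25 antibodies were tested by real-time surface plasmon resonance on a Biacore 4000, with rate constants obtained from sensorgram fits to a 1:1 binding model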
Classify as follows. Reported 100 nM Rat IL-25-MMH Bound (RU) greater than or equal to 30 RU: yes. Reported 100 nM Rat IL-25-MMH Bound (RU) below: no.

Worked examples follow.
binder | category
H4H10863P (antibody, human IgG4, V domains shown, H4H prefix = human IgG4 Fc) VH: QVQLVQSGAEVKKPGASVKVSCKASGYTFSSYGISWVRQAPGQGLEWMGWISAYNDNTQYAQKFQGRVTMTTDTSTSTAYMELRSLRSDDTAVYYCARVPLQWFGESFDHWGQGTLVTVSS VL: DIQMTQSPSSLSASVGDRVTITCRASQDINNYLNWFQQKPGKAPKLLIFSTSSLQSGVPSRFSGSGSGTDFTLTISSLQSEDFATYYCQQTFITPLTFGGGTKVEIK | yes
H4H10897P (antibody, human IgG4, V domains shown, H4H prefix = human IgG4 Fc) VH: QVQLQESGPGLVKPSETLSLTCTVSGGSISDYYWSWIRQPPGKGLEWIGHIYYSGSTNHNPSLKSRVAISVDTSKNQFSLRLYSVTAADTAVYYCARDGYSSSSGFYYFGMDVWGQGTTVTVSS VL: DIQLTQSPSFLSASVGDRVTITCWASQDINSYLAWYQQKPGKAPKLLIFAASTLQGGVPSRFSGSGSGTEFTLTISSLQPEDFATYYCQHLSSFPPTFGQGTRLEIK | no
H4H10861P (antibody, human IgG4, V domains shown, H4H prefix = human IgG4 Fc) VH: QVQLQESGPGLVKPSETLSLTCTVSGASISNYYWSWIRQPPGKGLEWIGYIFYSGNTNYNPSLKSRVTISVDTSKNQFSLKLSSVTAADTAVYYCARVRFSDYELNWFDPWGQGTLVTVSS VL: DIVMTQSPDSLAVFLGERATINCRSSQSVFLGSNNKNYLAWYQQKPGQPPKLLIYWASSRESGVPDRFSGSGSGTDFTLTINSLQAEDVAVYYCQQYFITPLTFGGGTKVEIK | no
H4H10871P (antibody, human IgG4, V domains shown, H4H prefix = human IgG4 Fc) VH: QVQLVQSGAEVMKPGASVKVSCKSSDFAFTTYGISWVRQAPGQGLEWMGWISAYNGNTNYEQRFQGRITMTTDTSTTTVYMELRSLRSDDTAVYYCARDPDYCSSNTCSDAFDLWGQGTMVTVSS VL: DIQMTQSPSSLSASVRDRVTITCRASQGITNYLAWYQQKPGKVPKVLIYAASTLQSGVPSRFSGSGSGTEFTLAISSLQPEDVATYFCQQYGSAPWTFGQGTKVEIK | yes
H4H10901P (antibody, human IgG4, V domains shown, H4H prefix = human IgG4 Fc) VH: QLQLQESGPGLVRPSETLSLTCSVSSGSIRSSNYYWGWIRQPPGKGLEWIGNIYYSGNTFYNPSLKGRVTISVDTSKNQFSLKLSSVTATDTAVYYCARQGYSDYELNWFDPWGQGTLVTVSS VL: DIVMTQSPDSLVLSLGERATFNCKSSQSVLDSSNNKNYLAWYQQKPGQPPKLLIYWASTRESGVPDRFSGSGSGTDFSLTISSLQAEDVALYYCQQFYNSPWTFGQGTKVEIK | no

Request: Could you tell me if the measured 100 nM Rat IL-25-MMH Bound (RU) of H4H10876P (antibody, human IgG4, V domains shown, H4H prefix = human IgG4 Fc) VH: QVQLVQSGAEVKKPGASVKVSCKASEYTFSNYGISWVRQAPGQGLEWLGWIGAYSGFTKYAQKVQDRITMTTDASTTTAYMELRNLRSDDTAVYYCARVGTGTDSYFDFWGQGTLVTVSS VL: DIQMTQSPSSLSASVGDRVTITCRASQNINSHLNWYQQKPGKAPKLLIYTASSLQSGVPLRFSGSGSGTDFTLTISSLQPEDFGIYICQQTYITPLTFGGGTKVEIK reaches 30 RU or more?
Result: yes

Request: Also need H4H10905P (antibody, human IgG4, V domains shown, H4H prefix = human IgG4 Fc) VH: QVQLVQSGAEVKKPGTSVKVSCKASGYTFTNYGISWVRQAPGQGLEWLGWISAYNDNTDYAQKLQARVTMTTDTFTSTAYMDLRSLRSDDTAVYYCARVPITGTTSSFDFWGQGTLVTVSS VL: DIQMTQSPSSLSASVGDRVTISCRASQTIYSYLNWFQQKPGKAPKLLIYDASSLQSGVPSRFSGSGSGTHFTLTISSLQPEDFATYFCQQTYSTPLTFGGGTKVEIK , thanks.
Result: yes

Request: Follow-up entry: H4H10907P (antibody, human IgG4, V domains shown, H4H prefix = human IgG4 Fc) VH: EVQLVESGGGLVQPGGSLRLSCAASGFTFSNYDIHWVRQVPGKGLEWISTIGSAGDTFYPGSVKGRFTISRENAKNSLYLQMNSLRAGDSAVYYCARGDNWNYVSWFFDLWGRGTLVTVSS VL: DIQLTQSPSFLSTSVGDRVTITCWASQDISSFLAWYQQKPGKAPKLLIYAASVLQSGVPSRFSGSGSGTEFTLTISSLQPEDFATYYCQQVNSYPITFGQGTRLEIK
Result: no

Request: Also H4H10883P (antibody, human IgG4, V domains shown, H4H prefix = human IgG4 Fc) VH: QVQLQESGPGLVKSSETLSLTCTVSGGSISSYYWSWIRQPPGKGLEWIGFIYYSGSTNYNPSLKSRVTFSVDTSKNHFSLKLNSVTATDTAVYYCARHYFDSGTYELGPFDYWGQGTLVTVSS VL: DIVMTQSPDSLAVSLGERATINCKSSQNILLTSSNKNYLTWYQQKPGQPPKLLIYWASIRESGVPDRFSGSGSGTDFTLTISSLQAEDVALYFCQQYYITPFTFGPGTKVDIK , if possible.
Result: no
